assay: Noncompartmental pharmacokinetic analysis of plasma concentrations after single oral dose of artefenomel and DSM265 in combination; format: in vivo, human; conditions: human, plasma, oral, cohort 1 (n = 8), 200 mg artefenomel plus 100 mg DSM265; read-out: t1/2, range
Readout: half-life

Give the reported value of half-life for this record: Cc1cc(Nc2ccc(S(F)(F)(F)(F)F)cc2)n2nc(C(C)(F)F)nc2n1
76 to 185 h

----------
Assay: Noncompartmental pharmacokinetic analysis of plasma concentrations after single oral dose of artefenomel and DSM265 in combination
Format: in vivo, human
Details: human, plasma, oral, cohort 2 (n = 5), 200 mg artefenomel plus 50 mg DSM265; read-out: t1/2 (elimination half-life), geometric mean (converted)
Protocol: Plasma samples were analyzed by liquid chromatography-tandem mass spectrometry (HPLC-MS/MS) as previously described ([2], [4]). […] These provide an estimate of the efficacy of an antimalarial treatment; with the former being the ratio of the parasite density decrease over a 48-h period (expressed as the log10 transformed cohort-specific PRR48 [log10 PRR48]). […]
Readout: half-life (h)
One number for each entry, in h.

Give the reported value of half-life for this record: Cc1cc(Nc2ccc(S(F)(F)(F)(F)F)cc2)n2nc(C(C)(F)F)nc2n1 [DSM265]
97
